Recorded values, source ChEMBL document CHEMBL4622848.

Target: UniProt P0DUB6
Sequence (P0DUB6 whole entry): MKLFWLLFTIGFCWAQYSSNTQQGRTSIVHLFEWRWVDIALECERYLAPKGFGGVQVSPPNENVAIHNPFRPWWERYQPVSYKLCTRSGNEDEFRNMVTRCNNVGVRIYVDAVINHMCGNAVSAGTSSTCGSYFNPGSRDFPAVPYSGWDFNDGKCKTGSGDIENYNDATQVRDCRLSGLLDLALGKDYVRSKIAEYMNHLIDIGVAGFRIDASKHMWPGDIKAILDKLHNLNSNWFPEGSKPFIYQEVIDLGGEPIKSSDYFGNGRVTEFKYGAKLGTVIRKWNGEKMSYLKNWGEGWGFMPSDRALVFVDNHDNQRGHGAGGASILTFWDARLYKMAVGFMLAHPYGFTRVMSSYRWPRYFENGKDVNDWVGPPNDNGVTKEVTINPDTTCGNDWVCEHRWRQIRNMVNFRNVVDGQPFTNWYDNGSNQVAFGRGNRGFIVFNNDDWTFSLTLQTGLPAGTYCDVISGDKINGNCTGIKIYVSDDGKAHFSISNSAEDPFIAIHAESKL
Assay: Inhibition of alpha-amylase (unknown origin) using starch as substrate preincubated for 10 mins followed by substrate addition and measured after 10 mins by dinitrosalicylic acid reagent based assay
Could you mark each record class 1 if its IC50 falls strictly under 4 µM, and class 0 if it equals or exceeds it?

q: IC50 under 4 µM? Item: CCOc1cc(/C=N/n2cnnc2)ccc1OC
a: class 0

q: Moving on to O=[N+]([O-])c1ccc(Cl)c(/C=N/n2cnnc2)c1
a: class 0

q: Moving on to Clc1ccc(/C=N/n2cnnc2)cc1
a: class 0

q: Moving on to COc1ccc(/C=N/n2cnnc2)cc1OCc1ccccc1
a: class 0

q: Moving on to Nc1ncccc1/C=N/n1cnnc1
a: class 1

q: Moving on to C(=N\n1cnnc1)/c1cc2ccccc2[nH]1
a: class 1

q: Moving on to Oc1ccc(/C=N/n2cnnc2)cc1O
a: class 0
